Recorded Stoichiometry (acid/base) by entry
PROTOCOL NOTES: Stoichiometry (acid/freebase) by 1H NMR or HPLC/IC
Assay type: physicochemical

- COMPOUND: "Br.CCCCc1nc(-c2ccc(OCCCN(CC)CC)cc2)cn1-c1ccc(Oc2ccc(Cl)cc2)cc1 [HBr salt Type B]"
  Stoichiometry (acid/base): 2.07
- COMPOUND: "CCCCc1nc(-c2ccc(OCCCN(CC)CC)cc2)cn1-c1ccc(Oc2ccc(Cl)cc2)cc1.O=C(O)c1cc(O)ccc1O [Gentisate Type B]"
  Stoichiometry (acid/base): 1.03
- COMPOUND: "CCCCc1nc(-c2ccc(OCCCN(CC)CC)cc2)cn1-c1ccc(Oc2ccc(Cl)cc2)cc1.O=C(O)[C@@H](O)[C@H](O)[C@H](O)[C@@H](O)C(=O)O [Galactarate Type A]"
  Stoichiometry (acid/base): 0.98
- COMPOUND: "CCCCc1nc(-c2ccc(OCCCN(CC)CC)cc2)cn1-c1ccc(Oc2ccc(Cl)cc2)cc1.O=C(O)C(=O)O [Oxalate Type A]"
  Stoichiometry (acid/base): 1.12
- COMPOUND: "CCCCc1nc(-c2ccc(OCCCN(CC)CC)cc2)cn1-c1ccc(Oc2ccc(Cl)cc2)cc1.O=C(O)/C=C/C(=O)O [Fumarate Type A]"
  Stoichiometry (acid/base): 1.00
- COMPOUND: "CCCCc1nc(-c2ccc(OCCCN(CC)CC)cc2)cn1-c1ccc(Oc2ccc(Cl)cc2)cc1.COc1cc(C(=O)O)ccc1O [Vanillate Type A]"
  Stoichiometry (acid/base): 1.04
- COMPOUND: "CCCCc1nc(-c2ccc(OCCCN(CC)CC)cc2)cn1-c1ccc(Oc2ccc(Cl)cc2)cc1.O=C(O)c1cc(O)ccc1O [Gentisate Type A]"
  Stoichiometry (acid/base): 1.01
- COMPOUND: "Br.CCCCc1nc(-c2ccc(OCCCN(CC)CC)cc2)cn1-c1ccc(Oc2ccc(Cl)cc2)cc1 [HBr salt Type A]"
  Stoichiometry (acid/base): 1.05
- COMPOUND: "CCCCc1nc(-c2ccc(OCCCN(CC)CC)cc2)cn1-c1ccc(Oc2ccc(Cl)cc2)cc1.O=C(O)/C=C\\C(=O)O [Maleate Type A]"
  Stoichiometry (acid/base): 0.97
- COMPOUND: "CCCCc1nc(-c2ccc(OCCCN(CC)CC)cc2)cn1-c1ccc(Oc2ccc(Cl)cc2)cc1.O=C(O)C[C@H](O)C(=O)O [L-Malate Type A]"
  Stoichiometry (acid/base): 1.11
- COMPOUND: "CCCCc1nc(-c2ccc(OCCCN(CC)CC)cc2)cn1-c1ccc(Oc2ccc(Cl)cc2)cc1.O=C(O)C(O)C(O)C(=O)O [L-Tartrate Type A]"
  Stoichiometry (acid/base): 1.00
- COMPOUND: "CCCCc1nc(-c2ccc(OCCCN(CC)CC)cc2)cn1-c1ccc(Oc2ccc(Cl)cc2)cc1.O=C1NS(=O)(=O)c2ccccc21 [Saccharinate Type A]"
  Stoichiometry (acid/base): 1.22
- COMPOUND: "CCCCc1nc(-c2ccc(OCCCN(CC)CC)cc2)cn1-c1ccc(Oc2ccc(Cl)cc2)cc1.O=C(O)CNC(=O)c1ccccc1 [Hippurate Type A]"
  Stoichiometry (acid/base): 0.98
- COMPOUND: "CCCCc1nc(-c2ccc(OCCCN(CC)CC)cc2)cn1-c1ccc(Oc2ccc(Cl)cc2)cc1.Cl [HCl salt Type A]"
  Stoichiometry (acid/base): 1.33

----------
PROTOCOL NOTES: Salt/co-crystal screening: 38 acids, eight solvent systems, solids analysed by XRPD
Type: physicochemical
MEASUREMENT SETUP: Methyl tertbutyl ether; acid/freebase charge 1:1 unless label says 2:1; stirred at RT, else 5° C. slurry, anti-solvent addition or evaporation (footnote marks)
RESULT TYPE: Solid obtained in salt screening (XRPD), solvent F Methyl tertbutyl ether

- COMPOUND: "CS(=O)(=O)O"
  OBSERVED RESULT: "amorphous"
- COMPOUND: "O=C(O)[C@H](O)[C@@H](O)[C@H](O)[C@H](O)CO"
  OBSERVED RESULT: "amorphous"
- COMPOUND: "O=C(O)CCCCC(=O)O"
  OBSERVED RESULT: "amorphous*"
- COMPOUND: "O=C(O)/C=C/c1ccccc1 [trans Cinnamic acid]"
  OBSERVED RESULT: "amorphous*"
- COMPOUND: "COc1cc(C=O)ccc1O"
  OBSERVED RESULT: "amorphous*"

----------
PROTOCOL NOTES: Salt/co-crystal screening: 38 acids, eight solvent systems, solids analysed by XRPD
Assay type: physicochemical
MEASUREMENT SETUP: THF; acid/freebase charge 1:1 unless label says 2:1; stirred at RT, else 5° C. slurry, anti-solvent addition or evaporation (footnote marks)
RESULT TYPE: Solid obtained in salt screening (XRPD), solvent C THF

- STRUCTURE NOTATION: "O=S(=O)(O)O"
  OBSERVED RESULT: "gel"
- STRUCTURE NOTATION: "CCCCCC(=O)O"
  OBSERVED RESULT: "gel"
- STRUCTURE NOTATION: "COc1cc(C(=O)O)ccc1O"
  OBSERVED RESULT: "gel"
- STRUCTURE NOTATION: "O=C(O)C[C@H](O)C(=O)O"
  OBSERVED RESULT: "gel"
- STRUCTURE NOTATION: "O=C(O)c1cccnc1"
  OBSERVED RESULT: "gel*"
- STRUCTURE NOTATION: "O=C(O)/C=C/C(=O)O"
  OBSERVED RESULT: "gel*"
- STRUCTURE NOTATION: "O=C(O)CCC(=O)O"
  OBSERVED RESULT: "gel*"
- STRUCTURE NOTATION: "O=C(O)c1cc(O)ccc1O"
  OBSERVED RESULT: "gel*"
- STRUCTURE NOTATION: "O=C(O)/C=C\\C(=O)O"
  OBSERVED RESULT: "gel*"
- STRUCTURE NOTATION: "Nc1ccc(C(=O)O)c(O)c1"
  OBSERVED RESULT: "gel"
- STRUCTURE NOTATION: "O=C(O)CCCCC(=O)O"
  OBSERVED RESULT: "gel*"
- STRUCTURE NOTATION: "O=C(O)c1ccccc1O"
  OBSERVED RESULT: "gel*"
- STRUCTURE NOTATION: "O=C(O)CC(=O)O"
  OBSERVED RESULT: "gel*"
- STRUCTURE NOTATION: "COc1cc(C=O)ccc1O"
  OBSERVED RESULT: "gel"

----------
PROTOCOL NOTES: Salt/co-crystal screening: 38 acids, eight solvent systems, solids analysed by XRPD
Type: physicochemical
MEASUREMENT SETUP: Methyl tertbutyl ether; acid/freebase charge 1:1 unless label says 2:1; stirred at RT, else 5° C. slurry, anti-solvent addition or evaporation (footnote marks)
RESULT TYPE: Solid obtained in salt screening (XRPD), solvent F Methyl tertbutyl ether

- COMPOUND: "O=C(O)CCCC(=O)O"
  OBSERVED RESULT: "amorphous^&"
- COMPOUND: "O=C(O)c1ccc2ccccc2c1O [1-hydroxy-2-naphthoic acid]"
  OBSERVED RESULT: "gel"
- COMPOUND: "O=C(O)[C@H](O)c1ccccc1"
  OBSERVED RESULT: "gel"
- COMPOUND: "C[C@H](O)C(=O)O"
  OBSERVED RESULT: "gel"
- COMPOUND: "CCCCCCCCCCCCCCCC(=O)O"
  OBSERVED RESULT: "gel*"
- COMPOUND: "O=C(O)CC(=O)O"
  OBSERVED RESULT: "gel*"
- COMPOUND: "O=C(O)c1ccccc1O"
  OBSERVED RESULT: "amorphous^&"

----------
PROTOCOL NOTES: Salt/co-crystal screening: 38 acids, eight solvent systems, solids analysed by XRPD
Type: physicochemical
MEASUREMENT SETUP: Dioxane/H2O (9:1, v/v); acid/freebase charge 1:1 unless label says 2:1; stirred at RT, else 5° C. slurry, anti-solvent addition or evaporation (footnote marks)
RESULT TYPE: Solid obtained in salt screening (XRPD), solvent H Dioxane/H2O (9:1, v/v)

- STRUCTURE NOTATION: "CCC(=O)O"
  OBSERVED RESULT: "amorphous*"
- STRUCTURE NOTATION: "O=C(O)CCC(=O)O"
  OBSERVED RESULT: "amorphous*"
- STRUCTURE NOTATION: "O=C(O)c1ccccc1"
  OBSERVED RESULT: "amorphous*"
- STRUCTURE NOTATION: "O=C(O)CNC(=O)c1ccccc1"
  OBSERVED RESULT: "amorphous*"
- STRUCTURE NOTATION: "O=C(O)CC(=O)O"
  OBSERVED RESULT: "amorphous*"
- STRUCTURE NOTATION: "O=C(O)[C@H](O)[C@@H](O)[C@H](O)[C@H](O)CO"
  OBSERVED RESULT: "amorphous*"
- STRUCTURE NOTATION: "O=S(=O)(O)O"
  OBSERVED RESULT: "gel*"
- STRUCTURE NOTATION: "O=C(O)CC(O)(CC(=O)O)C(=O)O"
  OBSERVED RESULT: "amorphous*"
- STRUCTURE NOTATION: "Nc1ccc(C(=O)O)c(O)c1"
  OBSERVED RESULT: "gel"
- STRUCTURE NOTATION: "O=C(O)C[C@H](O)C(=O)O"
  OBSERVED RESULT: "amorphous*"
- STRUCTURE NOTATION: "O=C(O)/C=C/C(=O)O"
  OBSERVED RESULT: "amorphous*"
- STRUCTURE NOTATION: "CCCCCCCCCCCCCCCC(=O)O"
  OBSERVED RESULT: "gel*"
- STRUCTURE NOTATION: "O=C(O)/C=C\\C(=O)O"
  OBSERVED RESULT: "amorphous*"
- STRUCTURE NOTATION: "C[C@H](O)C(=O)O"
  OBSERVED RESULT: "amorphous*"
- STRUCTURE NOTATION: "O=C(O)[C@H](O)c1ccccc1"
  OBSERVED RESULT: "amorphous*"
